target.desc: VPS34 (Homo sapiens)
Construct: GST (N); host or cells: SF9 insect cells (baculovirus)
Sequence (Q8NEB9 whole entry): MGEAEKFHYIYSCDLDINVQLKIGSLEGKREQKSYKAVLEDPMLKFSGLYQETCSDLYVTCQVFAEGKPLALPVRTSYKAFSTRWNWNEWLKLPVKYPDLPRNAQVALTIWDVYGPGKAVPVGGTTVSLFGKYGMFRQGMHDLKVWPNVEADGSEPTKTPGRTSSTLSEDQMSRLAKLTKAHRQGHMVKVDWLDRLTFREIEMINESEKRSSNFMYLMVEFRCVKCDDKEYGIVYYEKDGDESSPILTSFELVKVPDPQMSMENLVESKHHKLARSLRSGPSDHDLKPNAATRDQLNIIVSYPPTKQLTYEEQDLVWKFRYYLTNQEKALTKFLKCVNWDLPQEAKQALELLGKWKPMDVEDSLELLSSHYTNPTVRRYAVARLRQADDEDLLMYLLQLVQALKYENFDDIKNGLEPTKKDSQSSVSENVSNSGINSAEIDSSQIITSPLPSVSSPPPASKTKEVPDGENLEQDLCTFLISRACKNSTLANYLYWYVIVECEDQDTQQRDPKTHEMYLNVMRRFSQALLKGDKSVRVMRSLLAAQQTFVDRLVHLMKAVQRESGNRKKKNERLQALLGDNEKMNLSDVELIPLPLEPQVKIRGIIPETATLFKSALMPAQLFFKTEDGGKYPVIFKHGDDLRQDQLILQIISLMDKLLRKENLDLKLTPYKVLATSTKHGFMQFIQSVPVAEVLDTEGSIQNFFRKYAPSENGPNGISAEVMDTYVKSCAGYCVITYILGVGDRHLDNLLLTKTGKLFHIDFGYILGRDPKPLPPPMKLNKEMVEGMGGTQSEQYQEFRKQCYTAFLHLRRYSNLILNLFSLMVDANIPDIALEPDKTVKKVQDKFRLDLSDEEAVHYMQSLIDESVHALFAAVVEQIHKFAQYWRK
assay.details: Human VPS34 enzyme assay (Adapta Universal Kinase Assay)
Assay type: biochemical
stated.conditions: 1 h, read-out: VPS34 % ihn
measurement.name: inhibition at 1.11 µM (%)

Check out these entries, answers already filled in.
>>> readout_value("N#Cc1c(N2CCOCC2)sc2c1C(c1ccc3ccccc3c1)CCNC2=O (stereo not drawn)")
12.9
>>> readout_value("O=C1CCCC(c2ccc(Cl)cc2)c2cc(-c3ccncc3)sc21 (stereo not drawn)")
-6.8
>>> readout_value("CN1CC(c2ccc(Cl)cc2)c2cc(N3CCOCC3)sc2C1=O (stereo not drawn)")
8.01
>>> readout_value("CC1(C)CNC(=O)c2sc(-c3ccncc3)cc2C1c1ccc(Cl)cc1 (stereo not drawn)")
19.5

(1) O=C1CC(c2ccc(Cl)cc2)c2cc(-c3ccncc3)sc21 (stereo not drawn)
(2) O=S1(=O)NCC(O)(c2ccc(Cl)cc2)c2cc(-c3ccncc3)sc21 (racemic)
(3) CC1(C)C(=O)c2sc(N3CCOCC3)cc2C1(C)c1ccc(Cl)cc1 (racemic)
(4) CN(C)C(=O)[C@@H]1NC(=O)c2sc(N3CCOCC3)cc2[C@H]1c1ccc(Cl)cc1
Q. Please list the entries, largest inhibition at 1.11 µM first. Quick reminder: the answer is the labels in the order asked.
A. 4, 3, 2, 1

###

target.desc: PI3Kgamma (Homo sapiens, UniProt P48736)
Construct: His (N); host or cells: SF9 insect cells (baculovirus)
Sequence (P48736 whole entry): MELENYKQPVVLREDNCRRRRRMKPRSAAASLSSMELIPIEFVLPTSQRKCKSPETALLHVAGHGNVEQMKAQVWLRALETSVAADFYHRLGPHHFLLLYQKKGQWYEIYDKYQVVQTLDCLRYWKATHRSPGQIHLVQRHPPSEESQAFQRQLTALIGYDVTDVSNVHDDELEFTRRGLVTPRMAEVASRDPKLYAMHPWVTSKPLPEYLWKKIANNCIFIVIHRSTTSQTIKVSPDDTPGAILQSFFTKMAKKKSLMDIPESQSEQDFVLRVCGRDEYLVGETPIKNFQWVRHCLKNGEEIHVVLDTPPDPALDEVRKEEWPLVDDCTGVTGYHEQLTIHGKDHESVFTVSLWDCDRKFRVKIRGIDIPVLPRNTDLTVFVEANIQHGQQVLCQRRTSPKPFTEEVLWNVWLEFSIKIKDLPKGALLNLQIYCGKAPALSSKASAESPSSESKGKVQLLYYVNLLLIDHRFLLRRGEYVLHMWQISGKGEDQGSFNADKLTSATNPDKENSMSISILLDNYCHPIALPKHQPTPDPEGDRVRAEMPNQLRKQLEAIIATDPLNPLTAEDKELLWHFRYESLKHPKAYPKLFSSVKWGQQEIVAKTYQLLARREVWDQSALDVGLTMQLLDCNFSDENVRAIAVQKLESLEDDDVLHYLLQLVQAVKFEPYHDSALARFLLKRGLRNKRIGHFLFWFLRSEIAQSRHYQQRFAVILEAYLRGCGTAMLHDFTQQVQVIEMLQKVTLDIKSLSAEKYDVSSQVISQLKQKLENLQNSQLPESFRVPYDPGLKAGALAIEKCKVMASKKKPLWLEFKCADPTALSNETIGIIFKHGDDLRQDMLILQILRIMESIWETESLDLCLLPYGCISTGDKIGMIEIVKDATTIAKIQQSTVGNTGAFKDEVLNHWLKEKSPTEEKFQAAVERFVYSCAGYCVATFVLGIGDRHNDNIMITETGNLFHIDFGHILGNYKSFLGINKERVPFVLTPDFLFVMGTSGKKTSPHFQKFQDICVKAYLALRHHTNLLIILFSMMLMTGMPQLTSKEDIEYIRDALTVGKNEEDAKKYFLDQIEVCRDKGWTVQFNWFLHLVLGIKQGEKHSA
assay.details: Human PI3K gamma enzyme assay (HTRF, as for PI3K alpha)
Type: biochemical
stated.conditions: read-out: PI3Kgamma % inh
measurement.name: inhibition at 1.11 µM (%)

Some compounds with recorded inhibition at 1.11 µM:
>>> readout_value("O=C1NCC(c2ccc(Cl)cc2)c2nc(N3CCOCC3)sc21 (stereo not drawn)")
9.41
>>> readout_value("CN1CCC(c2ccc(Cl)cc2)c2cc(N3CCOCC3)sc2C1=O (stereo not drawn)")
6.82
>>> readout_value("CN1CC(c2ccc(Cl)cc2)c2cc(-c3ccncc3)sc2C1=O (stereo not drawn)")
5.01
>>> readout_value("CC1(C)C(=O)c2sc(N3CCOCC3)cc2C1(C)c1ccc(Cl)cc1 (racemic)")
5.03
>>> readout_value("Cc1nn2ccccc2c1-c1nc2c(s1)NC(=O)CCC2c1ccc(Cl)cc1 (stereo not drawn)")
5.2
>>> readout_value("C[Si](C)(C)CCOCN1CC(O)(c2ccc3ccccc3c2)c2cc(N3CCOCC3)sc2S1(=O)=O (stereo not drawn)")
67.8

(A) O=C1NCCC(c2ccc3ccccc3c2)c2nc(N3CCOCC3)sc21 (stereo not drawn)
(B) COC(=O)[C@@H]1C(=O)c2sc(-c3ccncc3)cc2[C@H]1c1ccc(Cl)cc1 (relative stereo)
(C) O=C1NCCC(c2ccc(Cl)cc2)c2cc(-c3ccncc3)sc21 (racemic)
Q. Arrange the 3 compounds by rising inhibition at 1.11 µM, starting with the smallest. Please reply with the labels ordered as requested. Many thanks.
A. B, C, A
(B: 4.6%, C: 21.9%, A: 49.5%)

###

target.desc: PI3Kbeta (Homo sapiens)
Construct: His (N); host or cells: SF9 insect cells (baculovirus)
Sequence (P42338 whole entry): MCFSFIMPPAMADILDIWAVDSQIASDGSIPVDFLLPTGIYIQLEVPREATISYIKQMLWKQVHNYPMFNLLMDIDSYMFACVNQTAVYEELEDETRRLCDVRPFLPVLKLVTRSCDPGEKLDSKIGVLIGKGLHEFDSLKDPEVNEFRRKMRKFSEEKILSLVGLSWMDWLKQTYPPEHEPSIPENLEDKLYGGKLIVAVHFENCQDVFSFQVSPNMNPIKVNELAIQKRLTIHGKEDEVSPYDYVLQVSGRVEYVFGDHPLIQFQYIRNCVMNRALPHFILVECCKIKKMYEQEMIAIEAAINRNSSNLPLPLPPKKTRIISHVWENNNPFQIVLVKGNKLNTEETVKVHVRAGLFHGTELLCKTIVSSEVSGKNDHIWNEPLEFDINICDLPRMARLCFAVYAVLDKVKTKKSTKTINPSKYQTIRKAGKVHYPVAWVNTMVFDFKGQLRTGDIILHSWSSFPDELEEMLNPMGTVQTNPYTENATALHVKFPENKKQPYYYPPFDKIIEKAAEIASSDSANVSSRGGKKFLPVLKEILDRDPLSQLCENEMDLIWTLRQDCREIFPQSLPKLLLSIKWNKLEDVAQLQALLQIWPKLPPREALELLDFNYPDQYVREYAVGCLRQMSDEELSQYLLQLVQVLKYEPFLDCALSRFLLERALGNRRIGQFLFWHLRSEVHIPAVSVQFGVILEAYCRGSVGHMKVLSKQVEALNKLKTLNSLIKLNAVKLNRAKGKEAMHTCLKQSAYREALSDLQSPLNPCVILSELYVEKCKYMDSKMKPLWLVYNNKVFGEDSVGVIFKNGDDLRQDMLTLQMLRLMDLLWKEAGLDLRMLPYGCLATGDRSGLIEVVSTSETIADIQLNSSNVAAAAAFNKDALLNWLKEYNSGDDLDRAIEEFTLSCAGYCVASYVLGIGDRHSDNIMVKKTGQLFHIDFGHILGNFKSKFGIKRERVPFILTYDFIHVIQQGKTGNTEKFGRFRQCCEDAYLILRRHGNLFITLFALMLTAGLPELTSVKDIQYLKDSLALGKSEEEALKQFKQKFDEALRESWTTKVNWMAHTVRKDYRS
Sequence (P27986 whole entry partner): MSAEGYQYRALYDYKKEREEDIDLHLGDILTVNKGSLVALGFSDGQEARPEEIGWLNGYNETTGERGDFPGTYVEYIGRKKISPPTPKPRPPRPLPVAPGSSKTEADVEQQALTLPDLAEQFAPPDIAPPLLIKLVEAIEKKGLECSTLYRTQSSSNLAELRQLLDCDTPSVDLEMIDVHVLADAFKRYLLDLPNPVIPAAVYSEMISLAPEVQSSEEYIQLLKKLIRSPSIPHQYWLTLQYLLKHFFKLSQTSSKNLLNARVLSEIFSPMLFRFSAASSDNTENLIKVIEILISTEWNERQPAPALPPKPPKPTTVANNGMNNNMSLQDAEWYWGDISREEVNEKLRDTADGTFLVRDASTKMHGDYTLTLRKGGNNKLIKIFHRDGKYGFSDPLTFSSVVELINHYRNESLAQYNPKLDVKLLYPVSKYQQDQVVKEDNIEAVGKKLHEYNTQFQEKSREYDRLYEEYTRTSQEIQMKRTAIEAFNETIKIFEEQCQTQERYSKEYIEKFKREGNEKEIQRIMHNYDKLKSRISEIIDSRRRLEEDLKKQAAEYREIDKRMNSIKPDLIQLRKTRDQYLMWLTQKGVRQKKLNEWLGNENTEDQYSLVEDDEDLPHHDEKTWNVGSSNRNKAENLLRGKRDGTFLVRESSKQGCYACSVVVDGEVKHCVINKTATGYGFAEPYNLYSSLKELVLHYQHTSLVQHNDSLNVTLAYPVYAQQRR
assay.details: Human PI3K beta enzyme assay (HTRF, as for PI3K alpha)
Format: biochemical
stated.conditions: at 1.11 μM; read-out: PI3Kbeta % inh
measurement.name: inhibition at 1.11 µM (%)

(a) Cc1cc(C2CNC(=O)c3sc(N4CCOCC4)c(C#N)c32)ccc1Cl (centres unmarked)
(b) CC1(C)C(=O)c2sc(-c3ccncc3)cc2C1c1ccc(Cl)cc1 (centres unmarked)
Q. Given the listed records, identify the one among a and b with higher inhibition at 1.11 µM. Kindly give the label for the entry you pick.
A. a
(a: 123%, b: 65.7%)

(A) O=C1CC(c2cccc(Cl)c2)c2cc(N3CCOCC3)sc21 (centres unmarked)
(B) COCCNC(=O)[C@@H]1NC(=O)c2sc(N3CCOCC3)cc2[C@H]1c1ccc(Cl)cc1
Q. // compare measured inhibition at 1.11 µM, left A , right B , return larger Which one? Tell me its label.
A. A
(A: 92.3%, B: 58.5%)
